# Tgt: RET(KD: 658-1114 G810R) (Homo sapiens, UniProt P07949, G810R)
# Construct: 658-1114; expressed in transfected cells; host or cells: 293T.165 (293T cells, generated in-house)
# Procedure Details: HiBiT-Degradation, RET G810R degradation assay (Nano-Glo HiBiT Lytic), 293T.165 cells
# Type: cell-based
Assay Readout: 293T.165 RET(KD: 658-1114 G810R) 6.0 hours (IP) [nM]

Worked set:
N#Cc1cnn2cc(-c3cnn(C4CCN(C(=O)CC5(O)CCN(c6ccc(NC7CCC(=O)NC7=O)cc6F)CC5)CC4)c3)nc(-c3ccc(N4CCC5(CC4)OCc4cccnc45)nc3)c12 (stereo not drawn) [Compound 113]	++++ (<50 nM = ++++)
N#Cc1cnn2cc(-c3cnn(C4CCN(C(=O)CC5(O)CCN(c6ccc(NC7CCC(=O)NC7=O)cc6F)CC5)CC4)c3)cc(-c3ccc(N4CCC(c5ccc(O)cc5)CC4)nc3)c12 (stereo not drawn) [Compound 197]	++++ (<50 nM = ++++)
COc1ccc(CN2C3COCC2CN(c2ccc(-c4nc(-c5cnn([C@H]6CC[C@H](N7CCN(c8cc(OC)c(NC9CCC(=O)NC9=O)cc8F)CC7)CC6)c5)cn5ncc(C#N)c45)cn2)C3)cn1 (stereo partly drawn) [Compound 165]	+++ (<100 nM = +++)
CCC1(C(=O)NC2CCC2)CCN(c2ccc(-c3nc(-c4cnn([C@H]5CC[C@H](N6CCC(c7ccc(NC8CCC(=O)NC8=O)cc7)CC6)CC5)c4)cn4ncc(C#N)c34)cn2)CC1 (single isomer, unassigned) [Compound 126]	++++ (<50 nM = ++++)

Query CCC1(C(=O)NC(C)C)CCN(c2ncc(-c3nc(-c4cnn(C5CCN(C(=O)CC6(O)CCN(c7ccc(NC8CCC(=O)NC8=O)cc7Cl)CC6)CC5)c4)cn4ncc(C#N)c34)cc2F)CC1 (stereo not drawn) [Compound 120] yields 293T.165 RET(KD: 658-1114 G810R) 6.0 hours (IP) [nM] of ++++ (<50 nM = ++++)

The value of 293T.165 RET(KD: 658-1114 G810R) 6.0 hours (IP) [nM] measured for the molecule CCC1(C(=O)Nc2ccccc2)CCN(c2ccc(-c3nc(-c4cnn(C5CCN(C(=O)CC6(O)CCN(c7ccc(NC8CCC(=O)NC8=O)cc7Cl)CC6)CC5)c4)cn4ncc(C#N)c34)cn2)CC1 (stereo not drawn) [Compound 98] turned out to be ++++ (<50 nM = ++++)

Reported 293T.165 RET(KD: 658-1114 G810R) 6.0 hours (IP) [nM] ( Cn1nc(N2CCC(=O)NC2=O)c2ccc(N3CCN([C@H]4CC[C@H](n5cc(-c6cn7ncc(C#N)c7c(-c7ccc(N8C[C@H]9COC[C@@H](C8)N9Cc8ccccn8)nc7)n6)cn5)CC4)CC3)c(F)c21 [Compound 208] ) = ++++ (<50 nM = ++++)

Per the record, COc1ccc(CN2C3CC2CN(c2ccc(-c4nc(-c5cnn([C@H]6CC[C@H](N7CCN(c8cc(OC)c(NC9CCC(=O)NC9=O)cc8F)CC7)CC6)c5)cn5ncc(C#N)c45)cn2)C3)cn1 (relative stereo) [Compound 167] has 293T.165 RET(KD: 658-1114 G810R) 6.0 hours (IP) [nM] of ++++ (<50 nM = ++++)

The value of 293T.165 RET(KD: 658-1114 G810R) 6.0 hours (IP) [nM] measured for the molecule CCC1(C(=O)NC2CCC2)CCN(c2ccc(-c3nc(-c4cnn(C5CCN([C@@H]6CCN(c7ccc(N[C@@H]8CCC(=O)NC8=O)cc7F)CC6(F)F)CC5)c4)cn4ncc(C#N)c34)cn2)CC1 (single isomer, unassigned) [Compound 192] turned out to be +++ (<100 nM = +++)

---

# Tgt: RET (658-1114) (Homo sapiens)
# Construct: 658-1114; expressed in transfected cells; host or cells: 293T.144 (293T cells, generated in-house)
# Procedure Details: HiBiT-Degradation, RET wild-type degradation assay (Nano-Glo HiBiT Lytic), 293T.144 cells
# Format: cell-based
Assay Readout: 293T.144 RET (658-1114) 6.0 hours (IP) [nM]

N#Cc1cnn2cc(-c3cnn(C4CCN(C(=O)CC5(O)CCN(c6ccc(NC7CCC(=O)NC7=O)cc6F)CC5)CC4)c3)nc(-c3ccc(N4CCN(C(=O)c5cccnc5)CC4)nc3)c12 (stereo not drawn) [Compound 106]	++++ (<50 nM = ++++)
N#Cc1cnn2cc(-c3cnn([C@H]4CC[C@H](N5CCC(c6ccc(NC7CCC(=O)NC7=O)cc6F)CC5)CC4)c3)nc(-c3ccc(N4CC5COCC(C4)N5Cc4ccccn4)nc3)c12 (single isomer, unassigned) [Compound 154]	++++ (<50 nM = ++++)
CCC1(C(=O)NC(C)C)CCN(c2ccc(-c3nc(-c4cnn(C5CCN(C(=O)CC6(OC)CCN(c7ccc(NC8CCC(=O)NC8=O)cc7F)CC6)CC5)c4)cn4ncc(C#N)c34)cn2)CC1 (stereo not drawn) [Compound 92]	++++ (<50 nM = ++++)

---

# Tgt: RET(KD: 658-1114 G810R) (Homo sapiens, UniProt P07949, G810R)
# Construct: 658-1114; expressed in transfected cells; host or cells: 293T.165 (293T cells, generated in-house)
# Procedure Details: HiBiT-Degradation, RET G810R degradation assay (Nano-Glo HiBiT Lytic), 293T.165 cells
# Format: cell-based
# Condition Description: 6.0 hours, half-maximal degradation concentration, read-out: 293T.165 RET(KD: 658-1114 G810R) 6.0 hours (DC50)
Hi there, I'd appreciate the recorded DC50 for every entry that follows.

Item: CCC1(C(=O)NC2CCC2)CCN(c2ccc(-c3nc(-c4cnn([C@H]5CC[C@H](CN6CCN(c7ccc(N[C@@H]8CCC(=O)NC8=O)cc7F)CC6)CC5)c4)cn4ncc(C#N)c34)cn2)CC1 | DC50: < 100 nM

Entry under test: N#Cc1cnn2cc(-c3cnn([C@H]4CC[C@H](N5CCC(c6ccc(N[C@@H]7CCC(=O)NC7=O)cc6F)CC5)CC4)c3)nc(-c3ccc(N4CCC5(CC4)OCc4cccnc45)nc3)c12 (relative stereo) [Compound 149] . Its DC50 was < 50 nM

Recorded DC50 (molecule CCC1(C(=O)NC(C)C)CCN(c2ccc(-c3cc(-c4ccc(N5CCN(C(=O)CN6CCC(c7ccc8c(N9CCC(=O)NC9=O)nn(C)c8c7)CC6)CC5)cc4)cn4ncc(C#N)c34)cn2)CC1 ): < 100 nM

Entry N#Cc1cnn2cc(-c3cnn(C4CC5(C4)CN(C(=O)CN4CCC(c6ccc(NC7CCC(=O)NC7=O)cc6F)CC4)C5)c3)cc(-c3ccc(N4CCN(Cc5ccccn5)CC4)nc3)c12 (centres unmarked) — recorded DC50 = < 100 nM

Field DC50 (entry N#Cc1cnn2cc(-c3cnn([C@H]4CC[C@@H](N5CCN(c6c(F)cc(NC7CCC(=O)NC7=O)cc6F)CC5)CC4)c3)cc(-c3ccc(N4CCC5(CC4)OCc4cccnc45)nc3)c12 (single isomer, unassigned) ) reads < 50 nM

---

Assignment: determine reported DC50 for the given molecules.
# Tgt: RET(KD: 658-1114 G810R) (Homo sapiens, UniProt P07949, G810R)
# Construct: 658-1114; expressed in transfected cells; host or cells: 293T.165 (293T cells, generated in-house)
# Procedure Details: HiBiT-Degradation, RET G810R degradation assay (Nano-Glo HiBiT Lytic), 293T.165 cells
# Type: cell-based
# Condition Description: HiBiT-Degradation, 6.0 hours, read-out: 293T.165 RET(KD: 658-1114 G810R) 6.0 hours (DC50)

The molecule listed as CC(=O)N1CCN(c2ccc(-c3cc(-c4ccc(N5CCN(C(=O)CN6CCC(c7ccc(NC8CCC(=O)NC8=O)cc7)CC6)CC5)cc4)cn4ncc(C#N)c34)cn2)CC1 (stereo not drawn) shows DC50 equal to < 100 nM

Recorded DC50 (molecule N#Cc1cnn2cc(-c3cnn(C4CCN(C(=O)CN5CCC(c6ccc(NC7CCC(=O)NC7=O)cc6F)CC5)CC4)c3)nc(-c3ccc(N4CCN(Cc5ccccn5)CC4)cc3)c12 (stereo not drawn) ): < 100 nM

Input N#Cc1cnn2cc(-c3ccc(N4CCN(C(=O)CN5CCC(c6ccc(NC7CCC(=O)NC7=O)cc6)CC5)CC4)cc3)cc(-c3ccc(N4CCC(Nc5ccccc5)CC4)nc3)c12 (stereo not drawn) . Output DC50: < 100 nM

---

# Tgt: RET(KD: 658-1114 G810R) (Homo sapiens, UniProt P07949, G810R)
# Construct: 658-1114; expressed in transfected cells; host or cells: 293T.165 (293T cells, generated in-house)
# Sequence (P07949 658-1114 G810R): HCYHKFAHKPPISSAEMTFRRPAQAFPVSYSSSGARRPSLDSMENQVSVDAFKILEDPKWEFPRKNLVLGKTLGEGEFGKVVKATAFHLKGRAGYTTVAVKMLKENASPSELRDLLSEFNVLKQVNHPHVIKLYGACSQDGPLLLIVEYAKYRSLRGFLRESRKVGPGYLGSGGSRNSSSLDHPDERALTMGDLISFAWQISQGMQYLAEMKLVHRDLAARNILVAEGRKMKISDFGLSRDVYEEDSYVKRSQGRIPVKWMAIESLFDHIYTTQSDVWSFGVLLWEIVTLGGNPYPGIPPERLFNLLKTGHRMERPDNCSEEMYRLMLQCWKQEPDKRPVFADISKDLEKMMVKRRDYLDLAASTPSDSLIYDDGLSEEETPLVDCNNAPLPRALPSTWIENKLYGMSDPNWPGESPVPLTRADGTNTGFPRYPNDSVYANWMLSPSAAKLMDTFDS
# Procedure Details: HiBiT-Degradation, RET G810R degradation assay (Nano-Glo HiBiT Lytic), 293T.165 cells
# Format: cell-based
# Condition Description: 6.0 hours, % remaining protein, read-out: 293T.165 RET(KD: 658-1114 G810R) 6.0 hours (Emax)
Can you tell me Emax for the items I'm about to list?

# Emax of CCC1(C(=O)NC(C)C)CCN(c2ccc(-c3nc(-c4cnn(C5CCN(C(=O)CC6(O)CCN(c7ccc(NC8CCC(=O)NC8=O)cc7)CC6)CC5)c4)cn4ncc(C#N)c34)cn2)CC1 (stereo not drawn) = < 50%

// Emax value for N#Cc1cnn2cc(-c3cnn(C4CCN(C(=O)CC5(O)CCN(c6ccc(NC7CCC(=O)NC7=O)cc6F)CC5)CC4)c3)nc(-c3ccc(N4CCN(C(=O)C5CCC5)CC4)nc3)c12 (stereo not drawn) : < 50%

Documented Emax of N#Cc1cnn2cc(-c3cnn([C@H]4CC[C@@H](N5CCN(c6c(F)cc(NC7CCC(=O)NC7=O)cc6F)CC5)CC4)c3)cc(-c3ccc(N4CCC5(CC4)OCc4cccnc45)nc3)c12 (single isomer, unassigned) : < 30%
